- target.of.assay: T1, hIL-4Rα on cells (human, UniProt P24394 26-825)
- T1 sequence: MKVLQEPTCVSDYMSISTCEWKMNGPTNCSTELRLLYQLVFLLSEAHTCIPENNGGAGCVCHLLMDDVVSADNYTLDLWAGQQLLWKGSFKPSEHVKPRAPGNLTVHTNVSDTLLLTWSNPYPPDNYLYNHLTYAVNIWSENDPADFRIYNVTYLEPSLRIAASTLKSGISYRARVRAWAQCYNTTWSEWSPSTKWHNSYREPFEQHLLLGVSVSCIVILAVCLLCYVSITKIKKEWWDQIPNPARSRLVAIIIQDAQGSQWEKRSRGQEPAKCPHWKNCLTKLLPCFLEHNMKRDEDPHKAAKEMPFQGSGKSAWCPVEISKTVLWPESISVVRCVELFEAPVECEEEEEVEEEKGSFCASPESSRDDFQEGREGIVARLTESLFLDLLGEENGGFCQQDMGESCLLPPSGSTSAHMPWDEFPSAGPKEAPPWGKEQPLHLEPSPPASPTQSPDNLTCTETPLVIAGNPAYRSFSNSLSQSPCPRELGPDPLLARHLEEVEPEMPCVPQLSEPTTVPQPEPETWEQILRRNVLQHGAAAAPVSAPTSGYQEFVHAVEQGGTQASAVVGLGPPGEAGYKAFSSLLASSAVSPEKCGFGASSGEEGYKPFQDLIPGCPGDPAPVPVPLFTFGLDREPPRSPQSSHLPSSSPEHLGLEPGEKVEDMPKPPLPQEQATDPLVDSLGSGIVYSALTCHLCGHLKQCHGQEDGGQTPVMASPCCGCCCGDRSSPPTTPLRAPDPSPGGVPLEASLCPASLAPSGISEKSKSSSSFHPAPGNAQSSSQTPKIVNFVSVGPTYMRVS
- assay: FACS on HEK293 cells, competitor biotin-hIL-4;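 further: HEK293 cells stably co-expressing hIL-13Rα and hIL-4Rα, stained for 1 h at 4 °C, read-out as mean fluorescence intensity by flow cytometry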
assay.readout: Relative Blockade of IL-4 Binding IC50

These solved cases illustrate the format of a correct answer.
[
  {
    "binder": "Construct 10 (mAb419) (antibody, IgG4, V domains shown, VH/VL only) VH: EVQLVESGGGLEQPGGSLRLSCAGSGFTFRDFAMTWVRQAPGKGLEWVSSISGDGSNTYYADSVKGRFTISRDNSKNTLYLQMNSLRAEDTAVYYCAKDRLSKTIRPRYYGLDVWGQGTTVTVSS VL: DIVMTQSPLSLPVTPGEPASISCRSSQSLLYSIGYNYVDWYLQKSGQSPQLLIYLGNKRASGVPDRFSGSGSGTDFTLKISRVEAEDVGFYYCMQALGSPYTFGQGTKLEIK",
    "Relative Blockade of IL-4 Binding IC50": "0.992 relative to dupilumab"
  },
  {
    "binder": "Construct 25 (mAb433) (antibody, IgG4, V domains shown, VH/VL only) VH: EVQLVESGGGLEQPGGSLRLSCAGSGFTFRDFAMTWVRQAPGKGLEWVSSISGSGDNIYYADSVKGRFTISRDNSKNTLYLQMNSLRAEDTAVYYCAKDRLSKTIRPRYYGLDVWGQGTTVTVSS VL: DIVMTQSPLSLPVTPGEPASISCTASQSLLYSIGYNYLDWYLQKSGQSPQLLIYEGNKRASGVPDRFSGSGSGTDFTLKISRVEAEDVGFYYCMQSLTSPYTFGQGTKLEIK",
    "Relative Blockade of IL-4 Binding IC50": "1.36 relative to dupilumab"
  },
  {
    "binder": "Construct 8 (mAb417) (antibody, IgG4, V domains shown, VH/VL only) VH: EVQLVESGGGLEQPGGSLRLSCAGSGFTFRDFAMTWVRQAPGKGLEWVSSISGSGDNIYYADSVKGRFTISRDNSKNTLYLQMNSLRAEDTAVYYCAKDRLSVTVRPRYYGLDVWGQGTTVTVSS VL: DIVMTQSPLSLPVTPGEPASISCRSTQSLLYSIGKNYVDWYLQKSGQSPQLLIYLGNNRATGVPDRFSGSGSGTDFTLKISRVEAEDVGFYYCMQALTTPYAFGQGTKLEIK",
    "Relative Blockade of IL-4 Binding IC50": "1.01 relative to dupilumab"
  },
  {
    "binder": "Construct 31 (mAb443) (antibody, IgG4, V domains shown, VH/VL only) VH: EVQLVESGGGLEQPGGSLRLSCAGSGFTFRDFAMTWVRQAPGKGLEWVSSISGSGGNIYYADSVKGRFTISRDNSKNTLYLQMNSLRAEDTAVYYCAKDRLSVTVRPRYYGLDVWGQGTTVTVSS VL: DIVMTQSPLSLPVTPGEPASISCRSSQSLLYSNGYNYLDWYLQKSGQSPQLLIYLGSNRASGVPDRFSGSGSGTDFTLKISRVEAEDVGFYYCMQALQAPYTFGQGTKLEIK",
    "Relative Blockade of IL-4 Binding IC50": "1.01 relative to dupilumab"
  },
  {
    "binder": "Construct 18 (mAb426) (antibody, IgG4, V domains shown, VH/VL only) VH: EVQLVESGGGLEQPGGSLRLSCAGSGFTFRDFAMTWVRQAPGKGLEWVSSISGSGDNTYYADSVKGRFTISRDNSKNTLYLQMNSLRAEDTAVYYCAKDRLSKTIRPRYYGLDVWGQGTTVTVSS VL: DIVMTQSPLSLPVTPGEPASISCTSSQSLLYSIGKNYVDWYLQKSGQSPQLLIYLGNKRASGVPDRFSGSGSGTDFTLKISRVEAEDVGFYYCMQSLTSPYTFGQGTKLEIK",
    "Relative Blockade of IL-4 Binding IC50": "0.85 relative to dupilumab"
  },
  {
    "binder": "Construct 15 (mAb423) (antibody, IgG4, V domains shown, VH/VL only) VH: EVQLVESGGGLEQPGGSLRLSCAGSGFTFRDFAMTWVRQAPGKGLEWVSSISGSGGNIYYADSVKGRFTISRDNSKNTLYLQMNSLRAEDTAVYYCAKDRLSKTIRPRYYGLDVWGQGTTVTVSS VL: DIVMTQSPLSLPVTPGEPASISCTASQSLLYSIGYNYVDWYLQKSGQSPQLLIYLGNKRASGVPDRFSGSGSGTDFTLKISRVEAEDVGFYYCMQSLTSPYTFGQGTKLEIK",
    "Relative Blockade of IL-4 Binding IC50": "0.66 relative to dupilumab"
  },
  {
    "binder": "Construct 3 (mAb412) (antibody, IgG4, V domains shown, VH/VL only) VH: EVQLVESGGGLEQPGGSLRLSCAGSGFTFRDFAMTWVRQAPGKGLEWVSSISGSGSSTYYADSVKGRFTISRDNSKNTLYLQMNSLRAEDTAVYYCAKDRLSITVRPRYYGLDVWGQGTTVTVSS VL: DIVMTQSPLSLPVTPGEPASISCRSSQSLLYSIGYNYVDWYLQKSGQSPQLLIYLGNKRASGVPDRFSGSGSGTDFTLKISRVEAEDVGFYYCMQALTTPYTFGQGTKLEIK",
    "Relative Blockade of IL-4 Binding IC50": "0.877 relative to dupilumab"
  },
  {
    "binder": "Construct 28 (mAb436) (antibody, IgG4, V domains shown, VH/VL only) VH: EVQLVESGGGLEQPGGSLRLSCAGSGFTFRDFAMTWVRQAPGKGLEWVSSVSGSGGNTYYADSVKGRFTISRDNSKNTLYLQMNSLRAEDTAVYYCAKDRLSVTVRPRYYGLDVWGQGTTVTVSS VL: DIVMTQSPLSLPVTPGEPASISCTSSQSLLYSIGYNYVDWYLQKSGQSPQLLIYLGNKRASGVPDRFSGSGSGTDFTLKISRVEAEDVGFYYCMQSLQTPYTFGQGTKLEIK",
    "Relative Blockade of IL-4 Binding IC50": "0.849 relative to dupilumab"
  }
]

Please report the recorded Relative Blockade of IL-4 Binding IC50 for Construct 9 (mAb418) (antibody, IgG4, V domains shown, VH/VL only) VH: EVQLVESGGGLEQPGGSLRLSCAGSGFTFTDFAMTWVRQAPGKGLEWVSSISGSGGNIYYADSVKGRFTISRDNSKNTLYLQMNSLRAEDTAVYYCAKDRLSVTVRPRYYGLDVWGQGTTVTVSS VL: DIVMTQSPLSLPVTPGEPASISCRSSQSLLYSIGKNYVDWYLQKSGQSPQLLIYLGNNRATGVPDRFSGSGSGTDFTLKISRVEAEDVGFYYCMQALGSPYTFGQGTKLEIK .
0.757 relative to dupilumab

Please report the recorded Relative Blockade of IL-4 Binding IC50 for Construct 42 (mAb481) (antibody, IgG4, V domains shown, VH/VL only) VH: EVQLVESGGGLEQPGGSLRLSCAGSGFTFRTYAMTWVRQAPGKGLEWVSSISGDGSNTYYADSVKGRFTISRDNSKNTLYLQMNSLRAEDTAVYYCAKDRVSITIRPRYYGLDVWGQGTTVTVSS VL: DIVMTQSPLSLPVTPGEPASISCTASQSLLYSIGYNYVDWYLQKSGQSPQLLIYLGNKRASGVPDRFSGSGSGTDFTLKISRVEAEDVGFYYCMQALTTPYTFGQGTKLEIK .
1.32 relative to dupilumab
